- assaySystem: CGRP antigen
- testName: cell-based or functional assay
testReadout: IC50

Solved entries:
hu227 (antibody, V domains shown, 3C1 HC-2/3C1 LC-2) VH: QVQLVQSGAEVKKPGASVKVSCKASGYTFTGYTMNWVRQAPGQRLEWMGLINPYIGNTHYNQKFKDRVTFTVDRSSSTAYMELSSLRSEDTAVYYCARELDSGFDYWGQGTLVTVSS VL: DVVMTQTPLSLSVTPGQPASISCRSSQNIVHSNGDTYLEWYLQKPGQSPQLLIYKVSNRFSGVPDRFSGSGSGTDFTLKISRVEAEDVGVYYCYQGSHVPWTFGQGTKLEIK    0.0368 µg/mL
hu76 (antibody, V domains shown, 1F5 HC-4/3E5 LC-1) VH: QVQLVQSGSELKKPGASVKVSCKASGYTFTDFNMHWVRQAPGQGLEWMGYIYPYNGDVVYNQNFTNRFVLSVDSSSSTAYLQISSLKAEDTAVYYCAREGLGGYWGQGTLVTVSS VL: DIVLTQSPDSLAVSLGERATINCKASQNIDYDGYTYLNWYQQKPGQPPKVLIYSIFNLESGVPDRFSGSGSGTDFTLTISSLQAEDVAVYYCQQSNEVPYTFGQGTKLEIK    0.0649 µg/mL
hu38 (antibody, V domains shown, 1F5 HC-1/3H10 LC2-1) VH: QVQLVQSGAEVKKPGASVKVSCKASGYTFIDFNMHWVRQAPGQRLEWMGYIYPYNGDVVYNQNFTNRVTLTVDTSSSTAYMELSSLRSEDTAVYYCAREGLGGYWGQGTLVTVSS VL: DIVLTQSPDSLAVSLGERATINCKASQNIDYGGYSYMNWYQQKPGQPPKVLIYSVFNLESGVPDRFSGSGSGTDFTLTISSLQAEDVAVYYCQQSNEAPYTFGQGTKLEIK    0.0725 µg/mL

Data request: # query: IC50 of entry hu58 (antibody, V domains shown, 1F5 HC-3/1F5 LC1-2) VH: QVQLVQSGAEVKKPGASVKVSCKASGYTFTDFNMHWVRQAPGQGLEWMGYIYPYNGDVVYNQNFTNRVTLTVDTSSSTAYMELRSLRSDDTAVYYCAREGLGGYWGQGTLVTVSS VL: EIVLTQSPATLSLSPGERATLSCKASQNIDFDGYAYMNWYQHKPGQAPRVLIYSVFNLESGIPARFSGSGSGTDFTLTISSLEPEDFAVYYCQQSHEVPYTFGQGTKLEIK
Data returned: 0.0619 µg/mL

Data request: Please do the same for hu237 (antibody, V domains shown, 3C1 HC-4/3C1 LC-4) VH: QVQLVQSGAEVKKPGASVKVSCKASGYTFTGYTMNWVRQAPGQGLEWMGLINPYIGNTHYNQKFKDRVTFTVDRSSSTAYMELSRLRSDDTAVYYCARELDSGFDYWGQGTLVTVSS VL: DVVMTQSPDSLAVSLGERATINCRSSQNIVHSNADTYLEWYQQKPGQPPKLLIYKVSNRFSGVPDRFSGSGSGTDFTLTISSLQAEDVAVYYCYQGSHVPWTFGQGTKLEIK as well.
Data returned: 0.129 µg/mL

Data request: Please do the same for hu77 (antibody, V domains shown, 1F5 HC-4/3H10 LC2-1) VH: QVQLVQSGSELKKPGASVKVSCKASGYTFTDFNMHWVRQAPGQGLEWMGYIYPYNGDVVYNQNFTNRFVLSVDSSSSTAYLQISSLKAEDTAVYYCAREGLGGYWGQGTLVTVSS VL: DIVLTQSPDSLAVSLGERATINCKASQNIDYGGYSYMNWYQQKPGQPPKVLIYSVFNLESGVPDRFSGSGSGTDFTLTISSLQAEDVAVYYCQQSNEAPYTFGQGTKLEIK as well.
Data returned: 0.0778 µg/mL

Data request: Please do the same for hu232 (antibody, V domains shown, 3C1 HC-3/3C1 LC-3) VH: QVQLVQSGSELKKPGASVKVSCKASGYTFTGYTMNWVRQAPGQGLEWMGLINPYIGNTHYNQKFKDRFVFSVDRSSSTAYLQISSLKAEDTAVYYCARELDSGFDYWGQGTLVTVSS VL: DVVMTQSPDSLAVSLGERATINCRSSQNIVHSNGDTYLEWYQQKPGQPPKLLIYKVSNRFSGVPDRFSGSGSGTDFTLTISSLQAEDVAVYYCYQGSHVPWTFGQGTKLEIK as well.
Data returned: 0.044 µg/mL

Data request: Please do the same for hu154 (antibody, V domains shown, 3E5 HC-1/3E5 LC-1) VH: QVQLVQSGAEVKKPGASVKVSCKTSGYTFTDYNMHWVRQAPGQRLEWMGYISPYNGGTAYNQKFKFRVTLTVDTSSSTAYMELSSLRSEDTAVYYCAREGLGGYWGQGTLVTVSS VL: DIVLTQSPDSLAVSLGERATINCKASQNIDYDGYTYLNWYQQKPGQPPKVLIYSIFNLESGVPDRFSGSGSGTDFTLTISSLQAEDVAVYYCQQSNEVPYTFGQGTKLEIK as well.
Data returned: 0.0905 µg/mL

Data request: Please do the same for hu234 (antibody, V domains shown, 3C1 HC-4/3C1 LC-1) VH: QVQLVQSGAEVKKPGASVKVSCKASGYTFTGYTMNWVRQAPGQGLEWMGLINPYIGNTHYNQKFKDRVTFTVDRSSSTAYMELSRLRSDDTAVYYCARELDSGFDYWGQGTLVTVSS VL: DVVMTQSPLSLPVTLGQPASISCRSSQNIVHSNGDTYLEWYQQRPGQSPRLLIYKVSNRFSGVPDRFSGSGSGTDFTLKISRVEAEDVGVYYCYQGSHVPWTFGQGTKLEIK as well.
Data returned: 0.0429 µg/mL

Data request: Please do the same for hu90 (antibody, V domains shown, 1F5 HC-5/3H10 LC2-1) VH: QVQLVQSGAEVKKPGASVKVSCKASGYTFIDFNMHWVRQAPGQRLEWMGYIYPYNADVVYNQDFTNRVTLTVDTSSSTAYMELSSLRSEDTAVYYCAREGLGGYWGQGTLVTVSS VL: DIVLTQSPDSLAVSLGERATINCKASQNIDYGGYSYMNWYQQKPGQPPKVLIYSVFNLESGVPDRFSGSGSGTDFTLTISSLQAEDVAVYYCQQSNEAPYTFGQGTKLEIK as well.
Data returned: 0.058 µg/mL

Recorded values, source patent US20260125454A1.
